Entries and their kon
# test_system: T1, sIL-6R (soluble IL-6 receptor; SBH Sciences) (human, UniProt P08887 20-365)
# T1 construct: also called human IL-6R
# T1 sequence: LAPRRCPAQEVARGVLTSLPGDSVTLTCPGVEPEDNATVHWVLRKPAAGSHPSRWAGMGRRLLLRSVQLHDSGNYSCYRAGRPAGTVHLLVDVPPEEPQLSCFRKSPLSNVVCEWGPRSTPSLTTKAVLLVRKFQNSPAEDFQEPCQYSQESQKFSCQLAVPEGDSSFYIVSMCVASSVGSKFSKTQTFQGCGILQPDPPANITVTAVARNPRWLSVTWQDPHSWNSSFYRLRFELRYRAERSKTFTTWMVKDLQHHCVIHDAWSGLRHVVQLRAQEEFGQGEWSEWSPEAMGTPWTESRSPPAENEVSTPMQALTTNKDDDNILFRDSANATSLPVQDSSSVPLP
# assay_explanation: SPR (BIAcore 3000), antibody on chip, sIL-6R analyte, 25 C
The figure you give is taken to be in M⁻¹ s⁻¹; do not add the unit.

Illustrative cases are given below, each with its answer.
binder | unit_string | kon
217# (antibody, human IgG1, kappa, V domains shown, also called Sample # 217) VH: QVQLQESGPGLVRPSQTLSLTCTVSGYSITSDHAWSWVRQPPGRGLEWIGYISYSGMITYNPSLKSRVTMLRDTSKNQFSLRLSSVTAADTAVYYCARCLARMTAMDYWGQGSLVTVSS VL: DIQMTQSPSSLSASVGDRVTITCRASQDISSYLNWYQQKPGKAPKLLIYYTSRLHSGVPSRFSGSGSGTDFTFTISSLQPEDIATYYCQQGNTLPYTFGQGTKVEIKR | M⁻¹ s⁻¹ | 188000
Tocilizumab (antibody, human IgG1, kappa, V domains shown, also called 25; 25(control)) VH: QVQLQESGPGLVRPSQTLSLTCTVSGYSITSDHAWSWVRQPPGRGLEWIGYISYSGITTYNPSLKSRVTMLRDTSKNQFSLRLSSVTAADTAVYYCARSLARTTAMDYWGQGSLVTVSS VL: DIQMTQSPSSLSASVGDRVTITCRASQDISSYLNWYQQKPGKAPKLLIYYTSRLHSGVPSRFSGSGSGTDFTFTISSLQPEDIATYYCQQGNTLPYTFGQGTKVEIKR | M⁻¹ s⁻¹ | 108000
215# (antibody, human IgG1, kappa, V domains shown) VH: QVQLQESGPGLVRPSQTLSLTCTVSGYSITSDHAWSWVRQPPGRGLEWIGYISYSGMITYNPSLKSRVTMLRDTSKNQFSLRLSSVTAADTAVYYCARSLARMTAMDYWGQGSLVTVSS VL: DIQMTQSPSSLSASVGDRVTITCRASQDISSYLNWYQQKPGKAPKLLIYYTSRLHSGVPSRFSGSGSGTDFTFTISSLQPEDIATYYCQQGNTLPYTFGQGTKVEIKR | M⁻¹ s⁻¹ | 157000
235# (antibody, human IgG1, kappa, V domains shown) VH: QVQLQESGPGLVRPSQTLSLTCTVSGYSITSDHAWSWVRQPPGRGLEWIGYISYSGMITYNPSLKSRVTMLRDTSKNQFSLRLSSVTAADTAVYYCARTLARMTAIDFWGQGSLVTVSS VL: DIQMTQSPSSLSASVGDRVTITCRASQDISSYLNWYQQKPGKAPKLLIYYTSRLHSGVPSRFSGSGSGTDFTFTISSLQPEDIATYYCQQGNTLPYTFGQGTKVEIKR | M⁻¹ s⁻¹ | 128000

Could you now consider this next binder?
# query: kon of entry 234# (antibody, human IgG1, kappa, V domains shown) VH: QVQLQESGPGLVRPSQTLSLTCTVSGYSITSDHAWSWVRQPPGRGLEWIGYISYSGMTTYNPSLKSRVTMLRDTSKNQFSLRLSSVTAADTAVYYCARCLARMTAMDYWGQGSLVTVSS VL: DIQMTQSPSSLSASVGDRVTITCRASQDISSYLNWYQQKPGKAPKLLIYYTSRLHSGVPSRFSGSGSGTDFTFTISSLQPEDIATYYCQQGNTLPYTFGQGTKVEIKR 154000

Values compiled from patent US20190315854A1.
